Data origin, for the record: patent US20220249679A1

# EXPERIMENTAL_TARGET: T1, hCD138 peptide AGEGPKEGEAVVLP (human)
# T1 construct: Portion of the linear CD138 peptide used for immunization; also the peptide in the crystal structure; also called syndecan-1 peptide
# T1 peptide: AGEGPKEGEAVVLP
# PROTOCOL: ELISA, plate-coated hCD138 peptide

{"BINDER": "F6 f1ks-rep (antibody, V domains shown, Humanized F12P16F6 expressed as whole antibody with human constant regions (kappa light chain)) VH: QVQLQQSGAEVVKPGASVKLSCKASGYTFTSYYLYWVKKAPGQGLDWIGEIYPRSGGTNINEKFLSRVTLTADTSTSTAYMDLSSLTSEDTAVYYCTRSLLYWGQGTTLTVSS VL: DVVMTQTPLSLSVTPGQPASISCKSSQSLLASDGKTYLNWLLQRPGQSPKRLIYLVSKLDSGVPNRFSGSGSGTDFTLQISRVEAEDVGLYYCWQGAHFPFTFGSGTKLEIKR", "EC50": "1.31 nM"}
{"BINDER": "F6 cka-rep (antibody, V domains shown, Humanized F12P16F6 expressed as whole antibody with human constant regions (kappa light chain)) VH: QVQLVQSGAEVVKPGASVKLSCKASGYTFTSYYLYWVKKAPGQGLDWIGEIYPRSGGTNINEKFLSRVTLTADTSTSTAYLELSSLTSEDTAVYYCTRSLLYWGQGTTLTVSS VL: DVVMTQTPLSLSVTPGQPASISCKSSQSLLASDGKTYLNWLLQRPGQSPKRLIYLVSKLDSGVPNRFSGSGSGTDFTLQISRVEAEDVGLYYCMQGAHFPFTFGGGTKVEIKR", "EC50": "1.65 nM"}
{"BINDER": "F6 cks-rep (hF6) (antibody, human IgG1, kappa, V domains shown, Humanized IgG1/kappa antibody; also called hF6 (no Fynomer)) VH: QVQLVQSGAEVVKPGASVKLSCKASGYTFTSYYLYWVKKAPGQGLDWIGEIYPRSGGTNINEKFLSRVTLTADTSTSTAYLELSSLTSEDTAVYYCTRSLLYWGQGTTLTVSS VL: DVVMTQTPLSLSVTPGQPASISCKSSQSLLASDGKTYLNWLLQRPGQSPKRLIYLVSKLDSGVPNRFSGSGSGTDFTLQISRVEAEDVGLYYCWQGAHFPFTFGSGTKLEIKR", "EC50": "0.33 nM"}
{"BINDER": "F6 aks-rep (antibody, V domains shown, Humanized F12P16F6 expressed as whole antibody with human constant regions (kappa light chain)) VH: QVQLVQSGAEVVKPGASVKLSCKASGYTFTSYYLYWVKKAPGQGLDWIGEIYPRSGGTNYAEKFQGRVTLTADTSTSTAYLELSSLTSEDTAVYYCTRSLLYWGQGTTLTVSS VL: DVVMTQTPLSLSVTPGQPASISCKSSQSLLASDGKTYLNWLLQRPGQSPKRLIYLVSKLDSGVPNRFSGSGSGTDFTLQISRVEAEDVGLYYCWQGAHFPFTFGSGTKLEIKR", "EC50": "1.28 nM"}
{"BINDER": "F6 akf-rep (antibody, V domains shown, Humanized F12P16F6 expressed as whole antibody with human constant regions (kappa light chain)) VH: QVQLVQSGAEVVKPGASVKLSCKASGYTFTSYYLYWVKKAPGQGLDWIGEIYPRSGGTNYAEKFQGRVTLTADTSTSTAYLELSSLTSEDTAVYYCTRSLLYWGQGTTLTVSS VL: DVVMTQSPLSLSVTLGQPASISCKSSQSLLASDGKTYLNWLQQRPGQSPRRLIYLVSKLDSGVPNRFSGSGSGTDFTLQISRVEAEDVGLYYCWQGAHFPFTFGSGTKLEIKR", "EC50": "1.54 nM"}
